- Tested on: INS-1 cells
- measurement-description: Insulin secretion assay in INS-1 cells (glucose at 4.2 mM)
- Type: cell-based, rat
- condition-description: glucose 4.2 mM, 1 h incubation, 10 μM of compound, control = glucose 4.2 mM
Catalogue of Insulin secretion, % of ctrl at 10 μM of cpd values
result-type: Insulin secretion, % of ctrl at 10 μM of cpd

# compound-structure, system, result
measured = [
    ("CC(C)Cn1ccnc(-c2ccc(Cl)cc2)c1=O", "INS-1 cells", "140 % of ctrl"),
    ("CCCn1ccnc(-c2ccccc2)c1=O", "INS-1 cells", "145 % of ctrl"),
    ("CCn1c2c(nc(-c3ccc(Cl)cc3)c1=O)CCCC2", "INS-1 cells", "343 % of ctrl"),
    ("O=c1c(-c2ccc(Cl)cc2)nccn1CC1CC1", "INS-1 cells", "172 % of ctrl"),
    ("CCn1ccnc(-c2ccc3c(c2)OCO3)c1=O", "INS-1 cells", "158 % of ctrl"),
]

====

Recorded melting point values for a group of compounds are listed next.

# compound, melting point / °C
records = [
    ("CCn1ccnc(-c2ccc3cc[nH]c3c2)c1=O [Example 5-16]", 170),
    ("CCn1ccnc(-c2ccc(C(=O)O)cc2)c1=O [Example 5-15]", 170),
]
